# credit: patent US20220064329A1

Documented Kd across a set of binders
Target: T1, recombinant human activated Factor VII (FVIIa) (human, UniProt P08709 61-212; P08709 213-466, ten glutamate residues of the Gla domain may be gamma-carboxylated)
T1 construct: chains tethered by a disulfide bond; also called Factor VIIa; rFVIIa
T1 sequence 1: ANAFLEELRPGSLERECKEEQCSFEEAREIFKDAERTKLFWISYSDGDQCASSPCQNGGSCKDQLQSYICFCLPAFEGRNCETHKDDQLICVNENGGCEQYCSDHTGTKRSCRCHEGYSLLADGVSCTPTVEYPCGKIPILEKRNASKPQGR
T1 sequence 2: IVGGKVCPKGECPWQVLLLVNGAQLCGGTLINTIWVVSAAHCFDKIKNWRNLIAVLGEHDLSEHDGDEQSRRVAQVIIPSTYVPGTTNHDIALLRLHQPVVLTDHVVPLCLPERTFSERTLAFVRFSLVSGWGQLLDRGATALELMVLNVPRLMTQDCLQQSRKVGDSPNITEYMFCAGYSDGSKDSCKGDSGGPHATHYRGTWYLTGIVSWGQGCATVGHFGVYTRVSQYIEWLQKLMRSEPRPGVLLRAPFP
Test: BLI (Fortebio)
Respond numerically; units are nM and should not be typed.

Would you please look over these solved cases?
binder	quantity measured	measured number
VH SEQ ID NO 618 / VL SEQ ID NO 462 (antibody, IgG4, V domains shown, humanized 11F2; IgG4 S228P/kappa) VH: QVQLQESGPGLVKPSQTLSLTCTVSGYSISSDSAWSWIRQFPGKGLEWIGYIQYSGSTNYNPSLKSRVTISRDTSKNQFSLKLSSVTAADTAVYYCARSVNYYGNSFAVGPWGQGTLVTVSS VL: EIVLTQSPATLSLSPGERATLSCRASQGVSDYLHWYQQKPGQAPRLLIKYASQPATGIPARFSGSGSGTDFTLTISSLEPEDFAVYYCQNGHSFPLTFGAGTKLEIK	Kd	1.4
VH SEQ ID NO 562 / VL SEQ ID NO 486 (antibody, IgG4, V domains shown, humanized 11F2; IgG4 S228P/kappa) VH: QVQLQESGPGLVKPSDTLSLTCAVSGYSISSDSAWSWIRQPPGKGLEWIGYIQYSGSTNYNPSLKSRVTMSRDTSKNQFSLKLSSVTALDTAVYYCARSVNYYGNSFAVGPWGQGTLVTVSS VL: EIVLTQSPATLSLSPGERATLSCRASQGVSDYLHWYQQKPGQAPRLLIKYASQPATGIPARFSGSGSGTDFTLTISSLEPEDFGVYYCQNGHSFPLTFGQGTKLEIK	Kd	1.3

Answer with the recorded Kd for the binder listed here: VH SEQ ID NO 514 / VL SEQ ID NO 422 (antibody, IgG4, V domains shown, humanized 11F2; IgG4 S228P/kappa) VH: QVQLQESGPGLVEPSDTLSLTCAVSGYSITSDSAWSWIRQPPGKKLEWIGYIQYSGSTNYNPSLKSRVTMSRDTSKNQFSLKLSSVTALDTAVYYCARSVNYYGNSFAVGYWGQGTLVTVSS VL: EIVLTQSPATLSLSPGERATLSCRASQGVSDYLAWYQQKPGQAPRLLIKYASQPATGIPARFSGSGSGTDFTLTISSLEPEDFAVYYCQQGHSFPLTFGQGTKLEIK
68
